The measurements presented in this section are drawn from the supplement of paper PMC10567573.

Give measured protein stability index for each item. Keep answers brief.
assayComment: protein stability index of a GFP-peptide fusion (GPS, HEK-293T) (PSI 1-6); higher = more stable;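 further: 24-mer peptide tiles fused after GFP, lentivirally expressed, FACS-sorted into six equal bins by GFP/DsRed ratio, decoded by Illumina sequencing, PSI is the read-weighted mean bin number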
settings: treatment: DMSO; c terminus: a fixed tail appended
# output: bare number, no unit

Fill blank: measured protein stability index of the sequence PTSPVYRGSSSGPSSPARVSTTPR [MTUS2] is ____.
5

Fill blank: measured protein stability index of the sequence LQARERGEEQVELSTIEELIKDAI [C2CD2L] is ____.
4.14

Fill blank: measured protein stability index of the sequence LLCPLCQEEEQAETPMAPVPLGPL [TRIM15] is ____.
3.38

---

assayComment: protein stability index of a GFP-peptide fusion (GPS, HEK-293T) (PSI 1-6); higher = more stable
settings: treatment: DMSO; c terminus: a fixed tail appended
observable: protein stability index
# output: bare number, no unit

Fill blank: measured protein stability index of the sequence GSDTGASLKLASSELERLIVPNSN [JUNB] is ____.
4.31

Fill blank: measured protein stability index of the sequence SDRPFKCNQCGKCFIQSSHLIRHQ [ZNF8] is ____.
3.31

Fill blank: measured protein stability index of the sequence PPSSPRTLRLEKLGHPALSQEEGK [PPFIA4] is ____.
5

Fill blank: measured protein stability index of the sequence DRIRFTVNRRISIVGFGLYGSIHG [BTBD1] is ____.
2.25

---

assayComment: protein stability index of a GFP-peptide fusion (GPS, HEK-293T) (PSI 1-6); higher = more stable
settings: treatment: DMSO; c terminus: a fixed tail appended
Decide using protein stability index: a value greater than or equal to 3 is Condition met, a smaller one is Condition not met.

Evaluate QNYISQKEDASEFQILKYLFQIDV [MIA2] : protein stability index at minimum 3?
Condition not met

Evaluate YGRSWESYSSCGDFHYCDREHVCR [RBMY1A1] : protein stability index at minimum 3?
Condition not met

Evaluate FTQPQQTSFALERNLRTQQEIEDK [C8orf76] : protein stability index at minimum 3?
Condition met

Evaluate LLSIIATVMILPVTHTEISPEQQF [TMEM175] : protein stability index at minimum 3?
Condition met

Evaluate VDEAAAESPSFLSLRKGASLSNGQ [NCK2] : protein stability index at minimum 3?
Condition met

Evaluate RPSLVIHLRIHTGEKPYKCTHCSK [ZNF449] : protein stability index at minimum 3?
Condition not met

Evaluate IRIIDRALKEDFGFKHRLWVYSGR [PRIM1] : protein stability index at minimum 3?
Condition not met

Evaluate HYIAGAHGNEVLGRELLLLLVQFV [CPXM2] : protein stability index at minimum 3?
Condition not met

Evaluate NIEDYFSHHLAVYNSPQFKKTMST [FBXO39] : protein stability index at minimum 3?
Condition not met

Evaluate TDGMILGPEDLSYQIYDVSGESNS [LARP4] : protein stability index at minimum 3?
Condition met

Evaluate VDSHHEYPAMTFYSPAVMNYSIPS [ESR2] : protein stability index at minimum 3?
Condition not met

Evaluate PFREILCKKLHIPLKAQNDLDISR [P2RY14] : protein stability index at minimum 3?
Condition not met

Evaluate SWYHWKGFEFSVPFTEMKLRPRNF [TNXB] : protein stability index at minimum 3?
Condition not met

Evaluate NRLSELEVANKDLTERKYKGDSTI [SASS6] : protein stability index at minimum 3?
Condition met

Evaluate QKHTEVETVDLVLKLKNKLLQADR [DENND6A] : protein stability index at minimum 3?
Condition met

Evaluate APDDSKAQAHRIHIDPEIQDGSPT [PDLIM4] : protein stability index at minimum 3?
Condition met

Evaluate HYDRNKDGNKDVYLSLLRMYLSPP [VPS39] : protein stability index at minimum 3?
Condition not met

Evaluate EEENDYRNLDASPTYKGLLMSLQN [CEP70] : protein stability index at minimum 3?
Condition met

Evaluate QGSRHWQKLREESAARVVLTSLLA [DUSP5] : protein stability index at minimum 3?
Condition not met

Evaluate DNPFGIYQKILAGKIDFPRHLDFH [PRKX] : protein stability index at minimum 3?
Condition not met

Evaluate PNIAMTSGTVQPKQDAFANFANFS [CLINT1] : protein stability index at minimum 3?
Condition met

Evaluate ILDLSCNKLTTLPSDFCGLTHLVK [LRRC59] : protein stability index at minimum 3?
Condition not met

Evaluate LNFWNKQDTLELESPSLTSTPVCS [MYBL2] : protein stability index at minimum 3?
Condition met

Evaluate SNFDDFPESDILQPVPNTTEPDYK [STK38L] : protein stability index at minimum 3?
Condition met

Evaluate REERLRRENEELSARYLSQCQEAE [FBF1] : protein stability index at minimum 3?
Condition met

Evaluate DADILGLKKSNSAPSKKAAKDPGK [FBF1] : protein stability index at minimum 3?
Condition met

Evaluate LATRSNEKQELQELNDRFANFIEK [PRPH] : protein stability index at minimum 3?
Condition met

Evaluate EESRISVPVHSFASLNIKTTVPEV [PRPH] : protein stability index at minimum 3?
Condition met

Evaluate FFASGFKRAFKIKDFANTIPGHGG [CDS2] : protein stability index at minimum 3?
Condition not met

Evaluate KPSGALGSESYKSSAGSAEQTAPG [EHMT1] : protein stability index at minimum 3?
Condition met

Evaluate EVDPVRRAVRDRNLLRDDRVLQNL [CCND2] : protein stability index at minimum 3?
Condition met

Evaluate SKNEVGIFTTPNFDETSSATTIST [KMT2E] : protein stability index at minimum 3?
Condition met

Evaluate VREIVKECSNIPLSQPQQGEAMLA [GAN] : protein stability index at minimum 3?
Condition met
